# Lookup of reported Population Mitotic Cells (%) keyed by entry
- Test system: U2OS
- test-details: Multiplex assay against U2OS
- Type: toxicity, cell-based
- experimental-context: human, 12 h, 1 µM, compound concentration 1 uM, replicate 2
endpoint: Population Mitotic Cells (%)

# compound, assay-target, result
measured = [
    ("CCOc1cc(C(=O)N2CCC(N3CCN(C)CC3)CC2)ccc1Nc1ncc2c(n1)N(C1CCCC1)c1ccccc1C(=O)N2C", "U2OS", "25%"),
    ("Cc1cc(C)c(S(=O)(=O)N(Cc2ccc(-c3cccc(S(C)(=O)=O)c3)cc2)Cc2ccc(C(F)(F)F)o2)c(C)c1", "U2OS", "33%"),
    ("CN(C)C(=O)C(CCN1CCC(O)(c2ccc(Cl)cc2)CC1)(c1ccccc1)c1ccccc1.Cl [LOPERAMIDE HYDROCHLORIDE]", "U2OS", "75%"),
    ("CNC(=O)c1ccc(Nc2nc(OC3CCCC3)c3c(-c4ccc5nc(C)oc5c4)c[nH]c3n2)c(OC)c1", "U2OS", "70%"),
    ("S=C(NCCCc1c[nH]cn1)NCCCN(Cc1ccc(Cl)c(Cl)c1)c1ccc(Br)cn1", "U2OS", "0%"),
    ("COC(=N)c1nc2ccc3ncnc(Nc4ccc(OC)cc4F)c3c2s1", "U2OS", "76%"),
    ("CCc1cccc(CC)c1NC(=O)c1nn(C)c2c1CCc1cnc(Nc3ccc(C(=O)NC4CCN(C)CC4)cc3OC(F)(F)F)nc1-2", "U2OS", "60%"),
    ("CN1C2CCC1CC(OC(c1ccc(F)cc1)c1ccc(F)cc1)C2.Cl (stereo not drawn)", "U2OS", "0%"),
    ("CCN1CCN(Cc2ccc(Nc3ncc(F)c(-c4cc(F)c5nc(C)n(C(C)C)c5c4)n3)nc2)CC1.CS(=O)(=O)O", "U2OS", "60%"),
    ("CCCn1c(=O)c2[nH]c(-c3cnn(Cc4cccc(C(F)(F)F)c4)c3)nc2n(CC)c1=O", "U2OS", "57%"),
    ("CCn1cc(-c2ccnc3[nH]c(-c4cccc(CN(C)C)c4)cc23)c(-c2ccc(NC(=O)N(C)C)cc2)n1", "U2OS", "0%"),
    ("Cc1ccc(C(=O)Nc2cccc(C(F)(F)F)c2)cc1Nc1nc(-c2cccnc2)nc2c1cnn2C", "U2OS", "50%"),
    ("NC(=O)c1cccc(-c2cc(Nc3ccc(OC(F)(F)F)cc3)ncn2)c1", "U2OS", "100%"),
]

* * *

- Tested on: HEK-293T
- test-details: Multiplex assay against HEK293T
- Format: toxicity, cell-based
- experimental-context: human, 12 h, 10 µM, compound concentration 10 uM, replicate 2
Kindly apply the following: class 1 if Population Hoechst High Intensity Objects (%) is less than 6%, class 0 in every other case.

# compound, label
data = [
    ("CCc1cccc(CC)c1NC(=O)c1nn(C)c2c1CCc1cnc(Nc3ccc(C(=O)NC4CCN(C)CC4)cc3OC(F)(F)F)nc1-2", "class 0"),
    ("COC(=N)c1nc2ccc3ncnc(Nc4ccc(OC)cc4F)c3c2s1", "class 1"),
    ("CNC(=O)c1ccc(Nc2nc(OC3CCCC3)c3c(-c4ccc5nc(C)oc5c4)c[nH]c3n2)c(OC)c1", "class 1"),
    ("CN(C)C(=O)C(CCN1CCC(O)(c2ccc(Cl)cc2)CC1)(c1ccccc1)c1ccccc1.Cl [LOPERAMIDE HYDROCHLORIDE]", "class 0"),
    ("CN1CCN(C(=O)C(C)(C)c2ccc(C(=O)Nc3cn4cc(-c5cc(C(C)(C)C)cc(C(C)(C)C)c5)ccc4n3)cc2)CC1", "class 1"),
    ("O=C(Cc1ccc(-c2ccc(OCCN3CCOCC3)cc2)cn1)NCc1ccccc1", "class 1"),
    ("C=CCn1c(=O)c2cnc(Nc3ccc(N4CCN(C)CC4)cc3)nc2n1-c1cccc(C(C)(C)O)n1", "class 1"),
]

* * *

- Test system: Fibroblast
- test-details: Multiplex assay against human fibroblast
- Assay type: toxicity, cell-based
- experimental-context: 12 h, 10 µM, compound concentration 10 uM, replicate 1
Catalogue of molecules with associated Population Tubulin-Different-Phenotype (%)
endpoint: Population Tubulin-Different-Phenotype (%)

# molecule, assay-target, result
rows = [
    ("S=C(NCCCc1c[nH]cn1)NCCCN(Cc1ccc(Cl)c(Cl)c1)c1ccc(Br)cn1", "Fibroblast", "88%"),
    ("Cl.Oc1ccc2c3c1O[C@H]1c4[nH]c5c(c4C[C@@]4(O)[C@@H](C2)N(CC2CC2)CC[C@]314)C[C@@]1(O)[C@H]2Cc3ccc(O)c4c3[C@@]1(CCN2CC1CC1)[C@H]5O4", "Fibroblast", "41%"),
    ("CCOC(=O)c1c(C)[nH]c2ccc3c(c12)CN1CCc2cc(OC)ccc2C1O3 (centres undefined)", "Fibroblast", "80%"),
    ("CCOc1cc(C(=O)N2CCC(N3CCN(C)CC3)CC2)ccc1Nc1ncc2c(n1)N(C1CCCC1)c1ccccc1C(=O)N2C", "Fibroblast", "86%"),
]

* * *

- System: Fibroblast
- test-details: Multiplex assay against human fibroblast
- Assay type: toxicity, cell-based
- experimental-context: 12 h, 10 µM, compound concentration 10 uM, replicate 1
// Condition not met strictly below 20% in Population Hoechst High Intensity Objects (%); Condition met otherwise

# compound, label
records = [
    ("NC(=O)c1cccc(-c2cc(Nc3ccc(OC(F)(F)F)cc3)ncn2)c1", "Condition not met"),
    ("CCCS(=O)(=O)c1nc(NC2CC2)cc(-c2ccc3c(ccn3C3CC(C)(C)NC(C)(C)C3)c2)n1", "Condition not met"),
    ("CCn1c(=O)c(-c2ccc(-c3cncs3)cc2Cl)cc2cnc(Nc3ccc(N4CCN(C)CC4)cc3)nc21", "Condition met"),
    ("O=C1N/C(=N/c2ccccc2F)S/C1=C\\c1ccc(C(=O)O)cc1", "Condition met"),
    ("CCCS(=O)(=O)Nc1ccc(F)c(C(=O)c2c[nH]c3ncc(Cl)cc23)c1F [PLX-4720]", "Condition not met"),
    ("CNC(=O)c1ccc(Nc2nc(OC3CCCC3)c3c(-c4ccc5nc(C)oc5c4)c[nH]c3n2)c(OC)c1", "Condition not met"),
    ("CCc1cccc(CC)c1NC(=O)c1nn(C)c2c1CCc1cnc(Nc3ccc(N4CCN(C)CC4)cc3OC)nc1-2", "Condition not met"),
    ("Cc1cn(-c2cc(NC(=O)c3ccc(C)c(Nc4nccc(-c5cccnc5)n4)c3)cc(C(F)(F)F)c2)cn1 [NILOTINIB]", "Condition met"),
    ("CCN1CCN(Cc2ccc(Nc3ncc(F)c(-c4cc(F)c5nc(C)n(C(C)C)c5c4)n3)nc2)CC1.CS(=O)(=O)O", "Condition not met"),
    ("CCc1cccc(CC)c1NC(=O)c1nn(C)c2c1CCc1cnc(Nc3ccc(C(=O)NC4CCN(C)CC4)cc3OC(F)(F)F)nc1-2", "Condition met"),
    ("Cl.Oc1ccc2c3c1O[C@H]1c4[nH]c5c(c4C[C@@]4(O)[C@@H](C2)N(CC2CC2)CC[C@]314)C[C@@]1(O)[C@H]2Cc3ccc(O)c4c3[C@@]1(CCN2CC1CC1)[C@H]5O4", "Condition not met"),
    ("O=C(Nc1cccnn1)N1CCC(=Cc2cccc(Oc3ccc(C(F)(F)F)cn3)c2)CC1", "Condition not met"),
    ("CCOc1cc2ncc(C#N)c(Nc3ccc(OCc4ccccn4)c(Cl)c3)c2cc1NC(=O)/C=C/CN(C)C [NERATINIB]", "Condition met"),
    ("COc1ccc(-c2ccc3c(N4CCOCC4)nc(N4C[C@@H](C)O[C@@H](C)C4)nc3n2)cc1CO [Ku-0063794]", "Condition met"),
    ("CCn1cc(-c2ccnc3[nH]c(-c4cccc(CN(C)C)c4)cc23)c(-c2ccc(NC(=O)N(C)C)cc2)n1 [GSK-1070916]", "Condition met"),
    ("O=C(Cc1ccc(-c2ccc(OCCN3CCOCC3)cc2)cn1)NCc1ccccc1 [TIRBANIBULIN]", "Condition not met"),
    ("CCOC(=O)c1c(C)[nH]c2ccc3c(c12)CN1CCc2cc(OC)ccc2C1O3 (configuration not stated)", "Condition not met"),
    ("CN1C2CCC1CC(OC(c1ccc(F)cc1)c1ccc(F)cc1)C2.Cl (configuration not stated)", "Condition not met"),
    ("COCC(=O)NC/C=C/c1ccc2ncnc(Nc3ccc(Oc4ccc(C)nc4)c(C)c3)c2c1 [CP-724714]", "Condition not met"),
    ("CN(C)C(=O)C(CCN1CCC(O)(c2ccc(Cl)cc2)CC1)(c1ccccc1)c1ccccc1.Cl [LOPERAMIDE HYDROCHLORIDE]", "Condition not met"),
    ("CCOc1cc(C(=O)N2CCC(N3CCN(C)CC3)CC2)ccc1Nc1ncc2c(n1)N(C1CCCC1)c1ccccc1C(=O)N2C", "Condition not met"),
    ("CN1CCC(=C2c3ccccc3CC(=O)c3sccc32)CC1.O=C(O)/C=C/C(=O)O [KETOTIFEN FUMARATE]", "Condition not met"),
    ("C=CCn1c(=O)c2cnc(Nc3ccc(N4CCN(C)CC4)cc3)nc2n1-c1cccc(C(C)(C)O)n1 [ADAVOSERTIB]", "Condition not met"),
    ("O=C(Nc1ccc(-n2nc(-c3cccnc3)cc2C(F)(F)F)cn1)c1ccc(-c2ccccc2)c(F)c1 [BI 2049]", "Condition not met"),
    ("COc1cc2ncnc(Nc3ccc(F)c(Cl)c3)c2cc1NC(=O)/C=C/CN1CCCCC1 [DACOMITINIB ANHYDROUS]", "Condition not met"),
    ("CN1CCN(C(=O)C(C)(C)c2ccc(C(=O)Nc3cn4cc(-c5cc(C(C)(C)C)cc(C(C)(C)C)c5)ccc4n3)cc2)CC1 [T3-CLK-N]", "Condition not met"),
    ("CCN1CCN(c2ccc(Nc3cc(N(C)C(=O)Nc4c(Cl)c(OC)cc(OC)c4Cl)ncn3)cc2)CC1 [INFIGRATINIB]", "Condition not met"),
    ("Cc1cc(C)c(S(=O)(=O)N(Cc2ccc(-c3cccc(S(C)(=O)=O)c3)cc2)Cc2ccc(C(F)(F)F)o2)c(C)c1", "Condition met"),
    ("Cl.O=c1c2cccn2c2ccccc2n1CCCN1CCC(c2ccc(Cl)cc2)CC1", "Condition met"),
    ("O=C(Nc1ccc(Cl)cc1)Nc1cccc(-c2cccc(N3CCCC3)n2)c1", "Condition met"),
]
